Target: T1, glucose-dependent insulinotropic peptide (gastric inhibitory polypeptide) receptor (human, UniProt P48546 22-466)
T1 sequence (looked up): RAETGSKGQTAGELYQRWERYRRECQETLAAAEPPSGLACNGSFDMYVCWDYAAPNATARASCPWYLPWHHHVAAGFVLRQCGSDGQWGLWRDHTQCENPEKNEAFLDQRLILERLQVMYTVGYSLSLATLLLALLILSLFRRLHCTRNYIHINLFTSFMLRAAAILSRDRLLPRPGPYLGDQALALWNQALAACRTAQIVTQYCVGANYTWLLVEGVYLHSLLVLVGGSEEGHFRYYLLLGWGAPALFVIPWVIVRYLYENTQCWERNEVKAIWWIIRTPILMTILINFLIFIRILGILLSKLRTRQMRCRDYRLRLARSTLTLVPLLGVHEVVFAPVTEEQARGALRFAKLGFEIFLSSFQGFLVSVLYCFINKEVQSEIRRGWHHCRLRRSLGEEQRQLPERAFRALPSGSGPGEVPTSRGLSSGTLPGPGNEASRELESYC
Assay: cell-based or functional assay
Starred links: 1 amine or outer side, 2 acyl side, 3 side chain; linkers in the order of their positions; H or OH if unused. Non-standard residues stand in square brackets, D forms with d. Groups on a side chain read outwards from the residue. Primed or numbered codes have the meaning given here. No end group written: not given here. *: point of attachment. γGlu = O=C(O)[C@H](CCC(=O)[*:2])N[*:1]; Stearoyl = CCCCCCCCCCCCCCCCCC(=O)*; αMeF = C[C@](N)(Cc1ccccc1)C(=O)O; αMeK = C[C@](N)(CCCCN)C(=O)O; αMeS = C[C@](N)(CO)C(=O)O; PEG2′ = not defined here; Aib = CC(C)(N)C(=O)O
MEASURED METRIC: Primary assay EC50 (cAMP), n2 (nM)

Illustrative cases are given below, each with its answer.
H[Aib]EGS[αMeF]TSDV[αMeS]S[αMeF]LEGEAAKEFIK([PEG2′-PEG2′-γGlu-Stearoyl])WVVEGG-NH2 [SEQ ID NO 65]	25.1
H[Aib]EGS[αMeF]TSDVSS[αMeF]LEGEAAK([PEG2′-PEG2′-γGlu-Stearoyl])E[αMeF]IA[αMeF]VV[αMeK]GG-NH2 [SEQ ID NO 46]	26
H[Aib]EGS[αMeF]TSDVSS[αMeF]LEGEAAK([PEG2′-PEG2′-PEG2′-Stearoyl])E[αMeF]IA[αMeF]VV[αMeK]GG-NH2 [SEQ ID NO 52]	26

1: H[Aib]EGS[αMeF]TSDVSK([PEG2′-PEG2′-PEG2′-Stearoyl])YLEGEAA[αMeK]E[αMeF]IA[αMeF]VVEGG-NH2 [SEQ ID NO 64]
2: HXEGTFTSDVSSYLEGQAAKEFIAWLVKGR (Aib 2; α-MeSer 8; α-MeSer 11; C-terminal amide) [SEQ ID NO 23]
**Q:** Between the entries labeled 1 and 2 , whose measured Primary assay EC50 (cAMP), n2 is lower? I would appreciate it if you answered with the label of your choice.
**A:** 1
(1: 25 nM, 2: 540 nM)
